- Test system: HEp-2
- measurement-protocol: Antiproliferative activity against human Hep2 cells after 72 hrs by MTT assay
- Assay type: functional, cell-based
- assay-setup: HEp-2, 72 h
pIC50: −log10 of the molar value.
observable: pIC50

[[record]]
chemical_smiles = "C[n+]1ccc(CCC(=O)OCCCC2=C/Nc3ccccc3/N=C/C(CCCOC(=O)CCc3cc[n+](C)cc3)=C\\Nc3ccccc3\\N=C\\2)cc1.[Br-].[Br-]"
observable = "pIC50"
comparator = "="
numeric_result = 4.42

[[record]]
chemical_smiles = "C1=C(CCC[n+]2ccc(-c3ccncc3)cc2)\\C=N\\c2ccccc2N/C=C(CCC[n+]2ccc(-c3ccncc3)cc2)\\C=N\\c2ccccc2N/1"
observable = "pIC50"
comparator = "<"
numeric_result = 4.00

[[record]]
chemical_smiles = "C1=C(CCC[n+]2ccccc2)\\C=N\\c2ccccc2N/C=C(CCC[n+]2ccccc2)\\C=N\\c2ccccc2N/1.[Br-].[Br-]"
observable = "pIC50"
comparator = "="
numeric_result = 4.96

